Test: Psilocin-d10 pharmacokinetics in female beagle dogs, oral gavage and intravenous (bolus)
Settings: female, beagle, dog, plasma, po, 1 mg/kg, mean AUC0-t, female dog plasma, single oral (gavage) dose

[
  {
    "MOLECULE": "[2H]C([2H])([2H])N(C([2H])([2H])[2H])C([2H])([2H])C([2H])([2H])c1c[nH]c2cccc(O)c12",
    "AUC(0-t) (ng·h/mL)": 387
  }
]

----------
Assay: Psilocin-d10 pharmacokinetics in female beagle dogs, oral gavage and intravenous (bolus)
Settings: female, beagle, dog, plasma, po, 1 mg/kg, AUC0-t, female dog plasma, single oral gavage 1.00 mg/kg, animal 61F
READOUT LABEL: AUC(0-t) (ng·h/mL)

[
  {
    "MOLECULE": "[2H]C([2H])([2H])N(C([2H])([2H])[2H])C([2H])([2H])C([2H])([2H])c1c[nH]c2cccc(O)c12",
    "VAL": 399
  }
]

----------
Experiment: Psilocin-d10 pharmacokinetics in female beagle dogs, oral gavage and intravenous (bolus)
Details: female, beagle, dog, plasma, iv, 0.2 mg/kg, t1/2, female dog plasma, single IV bolus 0.20 mg/kg, animal 61F

[
  {
    "MOLECULE": "[2H]C([2H])([2H])N(C([2H])([2H])[2H])C([2H])([2H])C([2H])([2H])c1c[nH]c2cccc(O)c12",
    "UNITS": "h",
    "half-life": 1.55
  }
]

----------
Assay: Psilocin-d10 pharmacokinetics in female beagle dogs, oral gavage and intravenous (bolus)
Conditions: female, beagle, dog, plasma, iv, 0.2 mg/kg, elimination half-life, dogs
READOUT LABEL: half-life (h)

[
  {
    "MOLECULE": "[2H]C([2H])([2H])N(C([2H])([2H])[2H])C([2H])([2H])C([2H])([2H])c1c[nH]c2cccc(O)c12 [Compound I-3]",
    "VAL": 1.35
  }
]

----------
Assay: Psilocin-d10 pharmacokinetics in female beagle dogs, oral gavage and intravenous (bolus)
Details: female, beagle, dog, plasma, iv, 0.2 mg/kg, AUC0-t, female dog plasma, single IV bolus 0.20 mg/kg, animal 61F

[
  {
    "MOLECULE": "[2H]C([2H])([2H])N(C([2H])([2H])[2H])C([2H])([2H])C([2H])([2H])c1c[nH]c2cccc(O)c12",
    "AUC(0-t) (ng·h/mL)": 80.7
  }
]

----------
Experiment: Psilocin-d10 pharmacokinetics in female beagle dogs, oral gavage and intravenous (bolus)
Conditions: female, beagle, dog, plasma, po, 1 mg/kg, t1/2, female dog plasma, single oral gavage 1.00 mg/kg, Mean (N=3)
READOUT LABEL: half-life

[
  {
    "MOLECULE": "[2H]C([2H])([2H])N(C([2H])([2H])[2H])C([2H])([2H])C([2H])([2H])c1c[nH]c2cccc(O)c12",
    "VAL": "1.77 h"
  }
]

----------
Assay: Psilocin-d10 pharmacokinetics in female beagle dogs, oral gavage and intravenous (bolus)
Conditions: female, beagle, dog, plasma, iv, 0.2 mg/kg, mean Cmax, female dog plasma, single intravenous (bolus) dose

[
  {
    "MOLECULE": "[2H]C([2H])([2H])N(C([2H])([2H])[2H])C([2H])([2H])C([2H])([2H])c1c[nH]c2cccc(O)c12",
    "UNITS": "ng/mL",
    "Cmax": 45.8
  }
]
